Please provide measured TGI for the entries that follow.
Test system: RXF-631 renal
Test: NCI tumour cell line growth inhibition, 48 h
Write the answer as a number in µM, unit excluded.

RXF-631 renal data for Cc1cc([N+](=O)[O-])ccc1NC(=O)C(=O)C(C(=O)c1ccccc1-c1ccccc1)C1OC(=O)c2ccccc21 (centres undefined) ; its TGI: 22.7

RXF-631 renal data for `Oc1ccc([Te]CCNCC[Te]c2ccc(O)cc2)cc1` ; its TGI: 90.2

----------
Please provide measured GI50 for the entries that follow.
Test system: BT-549 breast
Test: NCI tumour cell line growth inhibition, 48 h

compound c1ccc(N2N=C(c3cccc(Nc4ccncc4)c3)CC2c2ccc3c(c2)OCO3)cc1 (stereo not given) , GI50 observed: 1830 nM

compound `CN(C)c1ccc(/C=C/c2ccnc3c(O)cccc23)cc1` , GI50 observed: 1010 nM

compound CCCCCCCC/C=C/CCCCCCCC1=NC(C)(C)CN1CC(C)O (stereo not given) , GI50 observed: 2840 nM

compound `C=C(C)[C@@H]1CC[C@]2(COCCC#N)CC[C@]3(C)[C@H](CC[C@@H]4[C@@](C)(CCCNCCC#N)[C@H](C(=C)C)CC[C@]43C)[C@@H]12` , GI50 observed: 24300 nM

compound `COc1ccc(C(=O)Nc2ncc(Cc3cccc(Cl)c3)s2)cc1OC` , GI50 observed: 883 nM

compound `Cc1cc(Cl)cc2c(N=Nc3ccc(S(N)(=O)=O)cc3)c(O)[nH]c12` , GI50 observed: > 25000 nM

compound `O=C1CC[C@H](N2C(=O)c3cccc4c(Cc5ccc(CN6CCOCC6)cc5)ccc2c34)C(=O)N1` , GI50 observed: 17300 nM

compound `CCOC(=O)c1ccccc1OC(=O)NNc1ccccc1` , GI50 observed: 3560 nM

compound `COc1ccc(/C=C(/C(=O)N2CCN(c3ccccc3)CC2)c2cc(OC)c(OC)c(OC)c2)cc1N` , GI50 observed: 530 nM

compound CC(C)(C)N1CCC1CN (stereo not given) , GI50 observed: > 100000 nM

----------
Test system: MDA-MB-435
Assay: NCI tumour cell line growth inhibition, 48 h
Please provide measured TGI for the entries that follow.

molecule `COC1=CC(c2ccc[nH]2)=N/C1=C\c1[nH]c(C)c(CC(=O)OCc2ccccc2)c1CCC(=O)OCc1ccccc1` , TGI observed: 1.64 µM

molecule `CC[C@@H]1ON(C)[C@H]2CN(C)C(=O)[C@@H]12` , TGI observed: > 100 µM

molecule `COc1ccc(NC(=S)N/N=C\c2ccc(NC(C)=O)cc2)cc1` , TGI observed: > 100 µM

----------
Test system: SNB-75 CNS
Experiment: NCI tumour cell line growth inhibition, 48 h
Please provide measured TGI for the entries that follow.
Write the answer as a number in µM, unit excluded.

compound `N.N.NCCCCCN.O=C([O-])CCl.O=C([O-])CCl.O=C([O-])CCl.O=C([O-])CCl.[Pt+4].[Pt+4]` , TGI observed: 11.8

compound `Nc1c(-c2cn(Cc3ccccc3)c3ccccc23)[n+]([O-])c2ccccc2[n+]1[O-]` , TGI observed: 61.6

compound `O=C(c1ccccc1)c1ccc(N2C(=O)/C(=C/Cc3ccco3)N=C2c2ccccc2)c(N2C(=O)/C(=C/Cc3ccco3)N=C2c2ccccc2)c1` , TGI observed: 66.9

compound COc1ccc(CC2C3=C(CCN2C(=O)C2CCC2)CC2(CC3)OCCO2)cc1O (stereo not given) , TGI observed: 52.4

compound CCCCCCCCCCCCCCCCCCNc1ccn(C2OC(COP(=O)(O)OCC3OC(n4cc(C)c(=O)[nH]c4=O)CC3F)C(O)C2O)c(=O)n1 (stereo not given) , TGI observed: 37.6

compound `C[Si](C)(C)C#Cc1cc(-c2nc3ccccc3s2)ccc1N` , TGI observed: 27.5

compound `COc1ccc2sc3cccc(NCCN(C)C)c3c(=O)c2c1` , TGI observed: 12.8

compound Cc1[nH]c(=O)nc2c1C(NCCCN(C)C)c1cc(Cl)ccc1N2 (stereo not given) , TGI observed: 26.2

compound Clc1c(Cl)c(Cl)c2c(nnn2C2CCCO2)c1Cl (stereo not given) , TGI observed: 40.3

compound `COc1cc2nccc(Oc3ccc(NC(=O)NC4CC4)c(Cl)c3)c2cc1C(N)=O` , TGI observed: 36.8
